- Study System: ScLsb2
- Test Summary: SPOT peptide array binding signal intensity (averaged, normalized) (arbitrary units (background-subtracted, floor 0; scale differs between SH3 domains)); higher = stronger binding of the SH3 domain to the peptide
Endpoint Label: SPOT peptide array binding signal intensity

| Binder | Reported Measurement |
| --- | --- |
| DLFKPLPEPPTELGR | ≤ 0 |
| GPPPPLPPPLFPSSS | 12 |
| QLLNPNRRAPRRPLS | 370 |
| GQYRRTIVIPRRFFT | 29 |
| ANNQGPPNLPARDKS | 5 |
| TKPTPPPKPSHLKPK | ≤ 0 |
| PPIPIVPSSPAPPLP | ≤ 0 |
| PIVPSSPAPPLPLSG | ≤ 0 |

Form field SPOT peptide array binding signal intensity, entry NPNRRAPRRPLSTQH : 12
